These entries and their values trace back to the RNAGym collection of RNA variant scans (doi:10.7554/elife.80360).

B1: Hairpin Ribozyme (parent)
chain: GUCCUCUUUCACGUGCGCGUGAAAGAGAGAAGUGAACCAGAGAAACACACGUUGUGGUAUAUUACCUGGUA

variants of: B1; assay: self-cleavage, relative activity (ratio to wild type); higher = more cleavage; co-transcriptional
Label Condition met when self-cleavage is at or above 0.3; anything below gets Condition not met.

Query: Reported self-cleavage reaches at least 0.3 for C4G G19C ?
Reply: Condition not met

Query: Reported self-cleavage reaches at least 0.3 for U14C A71C ?
Reply: Condition met

Query: Reported self-cleavage reaches at least 0.3 for C10G A26C ?
Reply: Condition met

Query: Reported self-cleavage reaches at least 0.3 for C16A A26U ?
Reply: Condition met

Query: Reported self-cleavage reaches at least 0.3 for G51C U62C ?
Reply: Condition not met

Query: Reported self-cleavage reaches at least 0.3 for U8A A64C ?
Reply: Condition not met

Query: Reported self-cleavage reaches at least 0.3 for G13U A39G ?
Reply: Condition not met

Query: Reported self-cleavage reaches at least 0.3 for C3A U7A ?
Reply: Condition met

Query: Reported self-cleavage reaches at least 0.3 for G17A U70G ?
Reply: Condition met

Query: Reported self-cleavage reaches at least 0.3 for C18G C37G ?
Reply: Condition not met

Query: Reported self-cleavage reaches at least 0.3 for G42A A61C ?
Reply: Condition not met
